These entries and their values trace back to patent US20230330254A1.

Measured Relative Signal:Noise (% M2361), listed per entry for reference.
# target.entity: human GLP1R (Homo sapiens, UniProt P43220)
# Sequence (P43220 24-463): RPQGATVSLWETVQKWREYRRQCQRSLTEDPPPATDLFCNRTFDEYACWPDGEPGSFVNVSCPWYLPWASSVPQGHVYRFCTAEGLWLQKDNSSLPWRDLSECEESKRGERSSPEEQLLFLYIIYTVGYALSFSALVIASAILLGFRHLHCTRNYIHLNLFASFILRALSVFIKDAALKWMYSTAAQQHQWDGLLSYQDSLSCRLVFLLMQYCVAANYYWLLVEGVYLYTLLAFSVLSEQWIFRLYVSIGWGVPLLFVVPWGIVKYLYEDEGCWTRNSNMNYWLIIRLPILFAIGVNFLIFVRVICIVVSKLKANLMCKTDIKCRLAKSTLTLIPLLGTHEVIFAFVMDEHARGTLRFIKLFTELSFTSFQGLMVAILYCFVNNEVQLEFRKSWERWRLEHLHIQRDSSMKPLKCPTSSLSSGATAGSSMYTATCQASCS
# test.method.notes: Luciferase reporter assay, HEK293/CRE-Luc/hGLP1R (Example 17)
# Type: cell-based
# Parameters: engineered to express full-length human GLP1R, cynomolgus GLP1R; expressed in transfected cells; host or cells: HEK293/CRE-Luc
# conditions.used: HEK293/CRE-Luc/hGLP1R; relative to M2361 of the same experiment
Where a SMILES comes first, the peptide text is derived from it. [ ]: non-standard residue; d: D form. The star is where a group is joined. Bip(2'-Et,4'-O(CH2)4N3) = CCc1cc(OCCCCN=[N+]=[N-])ccc1-c1ccc(C[C@H](N)C(=O)O)cc1; Bip(2'-Et,4'-O(CH2)4NH2) = CCc1cc(OCCCCN)ccc1-c1ccc(C[C@H](N)C(=O)O)cc1; Malonyl(2,2-Me2,histaminyl) = CC(C)(C(=O)NCCc1cnc[nH]1)C(=O)*; Nva(5-(3,5-Me2Ph)) = Cc1cc(C)cc(CCC[C@H](N)C(=O)O)c1; Ala(1H-tetrazol-5-yl) = N[C@@H](Cc1nnn[nH]1)C(=O)O; αMePhe(2-F) = C[C@](N)(Cc1ccccc1F)C(=O)O; X1 = O=C(CCCCCc1cnc[nH]1)*
readout.kind: Relative Signal:Noise (% M2361) (%)

compound: CCc1cc(OCCCCN)ccc1-c1ccc(C[C@H](NC(=O)[C@H](CC(=O)O)NC(=O)[C@H](CO)NC(=O)[C@@H](NC(=O)[C@](C)(Cc2ccccc2F)NC(=O)[C@@H](NC(=O)CNC(=O)[C@H](Cc2nn[nH]n2)NC(=O)C(C)(C)C(=O)NCCc2cnc[nH]2)[C@@H](C)O)[C@@H](C)O)C(=O)Nc2ccccc2)cc1
readout.kind: Relative Signal:Noise (% M2361)
uom: %
result.value: 74.4
--
compound: CCc1cc(OCCCCN)ccc1-c1ccc(C[C@H](NC(=O)[C@H](CC(=O)O)NC(=O)[C@H](CO)NC(=O)[C@@H](NC(=O)[C@](C)(Cc2ccccc2F)NC(=O)[C@@H](NC(=O)CNC(=O)[C@H](Cc2nn[nH]n2)NC(=O)C(C)(C)C(=O)NCCc2cnc[nH]2)[C@@H](C)O)[C@@H](C)O)C(=O)N[C@@H](CCCc2cc(C)cc(C)c2)C(N)=O)cc1 [P9] ({Malonyl(2,2-Me2,histaminyl)}-[Ala(1H-tetrazol-5-yl)]GT[αMePhe(2-F)]TSD[Bip(2'-Et,4'-O(CH2)4NH2)][Nva(5-(3,5-Me2Ph))]-NH2)
readout.kind: Relative Signal:Noise (% M2361)
uom: %
result.value: 114.3
--
compound: CCc1cc(OCCCCNC(=O)[C@H](CO)NC(=O)CNC(=O)CNC(=O)CNC(=O)CNC(=O)[C@H](CO)NC(=O)CNC(=O)CNC(=O)CNC(=O)CNC(=O)CCC(=O)N2Cc3ccccc3C#Cc3ccccc32)ccc1-c1ccc(C[C@H](NC(=O)[C@H](CC(=O)O)NC(=O)[C@H](CO)NC(=O)[C@@H](NC(=O)[C@](C)(Cc2ccccc2F)NC(=O)[C@@H](NC(=O)CNC(=O)[C@H](Cc2nn[nH]n2)NC(=O)C(C)(C)C(=O)NCCc2cnc[nH]2)[C@@H](C)O)[C@@H](C)O)C(=O)N[C@@H](CCCc2cc(C)cc(C)c2)C(N)=O)cc1
readout.kind: Relative Signal:Noise (% M2361)
uom: %
result.value: 109.4
--
compound: CCc1cc(OCCCCn2cc(COCCOCCOCCOCCNC(=O)COC3C#CCCCCC3)nn2)ccc1-c1ccc(C[C@H](NC(=O)[C@H](CC(=O)O)NC(=O)[C@H](CO)NC(=O)[C@@H](NC(=O)[C@](C)(Cc2ccccc2F)NC(=O)[C@@H](NC(=O)CNC(=O)[C@H](Cc2nn[nH]n2)NC(=O)C(C)(C)C(=O)NCCc2cnc[nH]2)[C@@H](C)O)[C@@H](C)O)C(=O)N[C@@H](CCCc2cc(C)cc(C)c2)C(N)=O)cc1 (stereo partly drawn)
readout.kind: Relative Signal:Noise (% M2361)
uom: %
result.value: 78.7
--
compound: CCc1cc(OCCCCNC(=O)CNC(=O)CNC(=O)CNC(=O)CNC(=O)[C@H](CO)NC(=O)CCC(=O)N2Cc3ccccc3C#Cc3ccccc32)ccc1-c1ccc(C[C@H](NC(=O)[C@H](CC(=O)O)NC(=O)[C@H](CO)NC(=O)[C@@H](NC(=O)[C@](C)(Cc2ccccc2F)NC(=O)[C@@H](NC(=O)CNC(=O)[C@H](Cc2nn[nH]n2)NC(=O)C(C)(C)C(=O)NCCc2cnc[nH]2)[C@@H](C)O)[C@@H](C)O)C(=O)N[C@@H](CCCc2cc(C)cc(C)c2)C(N)=O)cc1
readout.kind: Relative Signal:Noise (% M2361)
uom: %
result.value: 84.1
--
compound: CCc1cc(OCCCCN)ccc1-c1ccc(C[C@H](NC(=O)[C@H](CC(=O)O)NC(=O)[C@H](CO)NC(=O)[C@@H](NC(=O)[C@](C)(Cc2ccccc2F)NC(=O)[C@@H](NC(=O)CNC(=O)[C@H](Cc2nn[nH]n2)NC(=O)CCCCCc2cnc[nH]2)[C@@H](C)O)[C@@H](C)O)C(=O)N[C@@H](CCCc2cc(C)cc(C)c2)C(N)=O)cc1 [P11] (X1-[Ala(1H-tetrazol-5-yl)]GT[αMePhe(2-F)]TSD[Bip(2'-Et,4'-O(CH2)4NH2)][Nva(5-(3,5-Me2Ph))]-NH2)
readout.kind: Relative Signal:Noise (% M2361)
uom: %
result.value: 83.4
--
compound: CCc1cc(OCCCCNC(=O)[C@H](CO)NC(=O)CNC(=O)CNC(=O)CNC(=O)CNC(=O)C(CO)NC(=O)CNC(=O)CNC(=O)CNC(=O)CN)ccc1-c1ccc(C[C@H](NC(=O)[C@H](CC(=O)O)NC(=O)[C@H](CO)NC(=O)[C@@H](NC(=O)[C@](C)(Cc2ccccc2F)NC(=O)[C@@H](NC(=O)CNC(=O)[C@H](Cc2nn[nH]n2)NC(=O)C(C)(C)C(=O)NCCc2cnc[nH]2)[C@@H](C)O)[C@@H](C)O)C(=O)N[C@@H](CCCc2cc(C)cc(C)c2)C(N)=O)cc1 (stereo partly drawn)
readout.kind: Relative Signal:Noise (% M2361)
uom: %
result.value: 99.9
--
compound: CCc1cc(OCCCCN=[N+]=[N-])ccc1-c1ccc(C[C@H](NC(=O)[C@H](CC(=O)O)NC(=O)[C@H](CO)NC(=O)[C@@H](NC(=O)[C@](C)(Cc2ccccc2F)NC(=O)[C@@H](NC(=O)CNC(=O)[C@H](Cc2nn[nH]n2)NC(=O)C(C)(C)C(=O)NCCc2cnc[nH]2)[C@@H](C)O)[C@@H](C)O)C(=O)N[C@@H](CCCc2cc(C)cc(C)c2)C(N)=O)cc1 [M2361] ({Malonyl(2,2-Me2,histaminyl)}-[Ala(1H-tetrazol-5-yl)]GT[αMePhe(2-F)]TSD[Bip(2'-Et,4'-O(CH2)4N3)][Nva(5-(3,5-Me2Ph))]-NH2)
readout.kind: Relative Signal:Noise (% M2361)
uom: %
result.value: 100.0
--
compound: CCc1cc(OC)ccc1-c1ccc(C[C@H](NC(=O)[C@H](CC(=O)O)NC(=O)[C@H](CO)NC(=O)C(NC(=O)[C@](C)(Cc2ccccc2F)NC(=O)[C@@H](NC(=O)CNC(=O)[C@H](Cc2nn[nH]n2)NC(=O)C(C)(C)C(=O)NCCc2cnc[nH]2)[C@@H](C)O)[C@@H](C)O)C(=O)N[C@@H](CCCc2ccc(OCCCCN)cc2)C(N)=O)cc1 (stereo in doubt)
readout.kind: Relative Signal:Noise (% M2361)
uom: %
result.value: 98.9
